Tested on: KRAS patient-derived spheroids with HUVEC/MSC, viability;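 also: spheroids exposed to agents for seven days before readout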
assay_comment: Anticancer human tumor 941728-121-R-J1-PDC patient-derived lung adenocarcinoma cell line growth inhibition [KRAS2]; active = viability on the fitted dose curve at most 10% of control; inactive = the rest
measurement_context: second compound 3.16 µM; first compound 1 µM
Outcome codes: T (active), F (inactive)

| compound | class |
| --- | --- |
| O=C(c1cc(Cc2n[nH]c(=O)c3ccccc23)ccc1F)N1CCN(C(=O)C2CC2)CC1 + CNCc1ccccc1-c1csc(C(C)Nc2nc(C)nc3cc(OC)c(OC)cc23)c1 | T |
| CC1COCCN1c1cc(-c2ccnn2C)c2ccnc(-c3ccn[nH]3)c2n1 (centres undefined) + CC1OCC2(CCN(c3cnc(Sc4ccnc(N)c4Cl)c(N)n3)CC2)C1N | F |
| O=C(c1cc(Cc2n[nH]c(=O)c3ccccc23)ccc1F)N1CCN(C(=O)C2CC2)CC1 + CC1OCC2(CCN(c3cnc(Sc4ccnc(N)c4Cl)c(N)n3)CC2)C1N | F |
| COc1cc2nccc(Oc3ccc(NC(=O)C4(C(=O)Nc5ccc(F)cc5)CC4)cc3)c2cc1OC + CC1OCC2(CCN(c3cnc(Sc4ccnc(N)c4Cl)c(N)n3)CC2)C1N | F |
| COc1cc(Nc2ncc3c(n2)-c2ccc(Cl)cc2C(c2c(F)cccc2OC)=NC3)ccc1C(=O)O + C=CC(=O)N1CCN(c2nc(=O)n(-c3c(C)ccnc3C(C)C)c3nc(-c4c(O)cccc4F)c(F)cc23)C(C)C1 | F |
| COC(=O)c1ccc2c(C(=Nc3ccc(N(C)C(=O)CN4CCN(C)CC4)cc3)c3ccccc3)c(O)[nH]c2c1 + CC1OCC2(CCN(c3cnc(Sc4ccnc(N)c4Cl)c(N)n3)CC2)C1N | F |
| CC1OCC2(CCN(c3cnc(Sc4ccnc(N)c4Cl)c(N)n3)CC2)C1N (centres undefined) + CNCc1ccccc1-c1csc(C(C)Nc2nc(C)nc3cc(OC)c(OC)cc23)c1 | T |
| CC1(C)CCC(CN2CCN(c3ccc(C(=O)NS(=O)(=O)c4ccc(NCC5CCOCC5)c([N+](=O)[O-])c4)c(Oc4cnc5[nH]ccc5c4)c3)CC2)=C(c2ccc(Cl)cc2)C1 + CNCc1ccccc1-c1csc(C(C)Nc2nc(C)nc3cc(OC)c(OC)cc23)c1 | T |
| CCN1CCN(Cc2ccc(Nc3ncc(F)c(-c4cc(F)c5nc(C)n(C(C)C)c5c4)n3)nc2)CC1 + CNCc1ccccc1-c1csc(C(C)Nc2nc(C)nc3cc(OC)c(OC)cc23)c1 | T |
